For each record, write down the corresponding IC50.
target: JAK3 (Homo sapiens, UniProt P52333); construct: 5 μl of catalytic domain recombinant Kinase enzyme+Tyr peptide substrate (Invitrogen, CA); assay: Z'-LYTE kinase assay JAK3
Sequence (P52333 822-1111 limits assumed): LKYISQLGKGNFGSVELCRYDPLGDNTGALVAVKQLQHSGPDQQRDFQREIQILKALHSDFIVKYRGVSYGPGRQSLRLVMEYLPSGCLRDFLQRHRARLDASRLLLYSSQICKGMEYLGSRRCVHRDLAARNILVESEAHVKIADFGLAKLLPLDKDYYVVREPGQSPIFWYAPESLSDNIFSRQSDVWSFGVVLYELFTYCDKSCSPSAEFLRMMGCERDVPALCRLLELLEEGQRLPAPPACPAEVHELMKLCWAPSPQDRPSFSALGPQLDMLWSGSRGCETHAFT

Exercise: Lab note: need IC50 for NC(=O)c1cnc(Nc2ccc(C(=O)N3CCC3)cc2)cc1NCc1ccccc1 [Example 46] on JAK3 (Homo sapiens, UniProt P52333), anyone have it?
Key: 1 to 10 nM

Exercise: Also C[C@@H](Nc1nc(Nc2ccc(OCCN3CCCC3)cc2)c(F)cc1C(N)=O)c1ccccc1 [Example 27] ?
Key: > 1000 nM

Exercise: Also CN(C)C(=O)C1CCN(c2ccc(Nc3cc(NCc4cccc5[nH]ccc45)c(C(N)=O)cn3)cc2)CC1 [Example 345] ?
Key: < 1 nM

Exercise: Also Cc1cc(Nc2cc(NCc3cccc4[nH]ccc34)c(C(N)=O)cn2)ccc1C(=O)N(C)C [Example 295] ?
Key: < 1 nM

###

For each record, write down the corresponding pIC50.
target: JAK3 (Homo sapiens, UniProt P52333); construct: 5 μl of catalytic domain recombinant Kinase enzyme+Tyr peptide substrate (Invitrogen, CA); assay: Z'-LYTE kinase assay JAK3
pIC50: −log10 of the molar value.

Exercise: Please report the recorded pIC50 for `CS(=O)(=O)c1ccc(Nc2cc(NCc3cccc(-c4ccncc4)c3)c(C(N)=O)cn2)cc1` .
Key: 7.00 to 8.00

Exercise: Also `COC(=O)N(C)c1ccc(Nc2cc(NCc3cccc4ccsc34)c(C(N)=O)cn2)cc1` ?
Key: 8.00 to 9.00

Exercise: Also `CN(C)C(=O)c1ccc(Nc2cc(NCc3ccccc3)c(C(=O)N(C)C)cn2)cc1` ?
Key: < 6.00

Exercise: Also `NC(=O)c1cnc(Nc2ccc(N3CCOCC3)cc2)cc1Nc1ccc(N2CCOCC2)cc1` ?
Key: 7.00 to 8.00

Exercise: Also `CC(=O)N1CCN(c2ccc(Nc3cc(NCc4ccccc4F)c(C(N)=O)cn3)cc2)CC1` ?
Key: 8.00 to 9.00

###

For each record, write down the corresponding IC50.
target: JAK2 (Homo sapiens, UniProt O60674); construct: 5 μl of catalytic domain recombinant Kinase enzyme+Tyr peptide substrate (Invitrogen, CA); assay: Z'-LYTE kinase assay JAK2
Sequence (O60674 849-1124 limits assumed): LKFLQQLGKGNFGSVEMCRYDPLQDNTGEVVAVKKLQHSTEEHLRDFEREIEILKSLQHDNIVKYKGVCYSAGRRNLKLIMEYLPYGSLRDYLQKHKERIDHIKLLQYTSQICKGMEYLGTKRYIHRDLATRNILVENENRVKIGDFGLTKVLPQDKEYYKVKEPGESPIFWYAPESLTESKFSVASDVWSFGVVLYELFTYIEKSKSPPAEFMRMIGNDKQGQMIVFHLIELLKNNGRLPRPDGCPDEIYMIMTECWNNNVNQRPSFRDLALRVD

Exercise: Please report the recorded IC50 for `CCS(=O)(=O)N1CCC(CNc2cc(Nc3ccc(C4CCOCC4)cc3)ncc2C(N)=O)CC1` .
Key: > 1000 nM

Exercise: Also `CC(=O)Nc1ccc(Nc2cc(NCc3cccc4ccsc34)c(C(N)=O)cn2)cc1` ?
Key: 10 to 100 nM

Exercise: Also `CCC(=O)N1CCC(c2ccc(Nc3cc(NCc4ncccn4)c(C(N)=O)cn3)cc2)CC1` ?
Key: > 1000 nM

Exercise: Also `NC(=O)c1cnc(Nc2ccc(CC(=O)N3CCOCC3)cc2)cc1NCc1ccccc1` ?
Key: 100 to 1000 nM

Exercise: Also `CC(C)(C)OC(=O)N1CCC(c2ccc(Nc3cc(NCc4cccc(F)c4)c(C(N)=O)cn3)cc2)CC1` ?
Key: > 1000 nM

###

biological target: JAK2 (Homo sapiens, UniProt O60674); construct: 5 μl of catalytic domain recombinant Kinase enzyme+Tyr peptide substrate (Invitrogen, CA); assay: Z'-LYTE kinase assay JAK2
pIC50: −log10 of the molar value.
measurement-name: pIC50

Exercise: Please report the recorded pIC50 for `Cc1cc(Nc2cc(NCc3cccc4[nH]ccc34)c(C(N)=O)cn2)ccc1C(=O)N1CCC1` .
Key: 8.00 to 9.00

Exercise: Also `NC(=O)c1cnc(Nc2ccc(C(=O)N3CCCC3)cc2)cc1NCc1ccccc1` ?
Key: 6.00 to 7.00

Exercise: Also `CN(C)C(=O)c1ccc(Nc2cc(NCc3cccc(-c4cccnc4)c3)c(C(N)=O)cn2)cc1` ?
Key: 6.00 to 7.00

Exercise: Also `N#CCC(=O)N1CCC(c2ccc(Nc3cc(NCc4ccccc4F)c(C(N)=O)cn3)cc2)CC1` ?
Key: 6.00 to 7.00

Exercise: Also `CCC(=O)N1CC(c2ccc(Nc3cc(NCc4cccc5[nH]ccc45)c(C(N)=O)cn3)cc2)C1` ?
Key: 8.00 to 9.00

Exercise: Also `CN(C)C(=O)c1ccc(Nc2cc(NCc3ccccc3)c(C(N)=O)cn2)cc1C(F)(F)F` ?
Key: < 6.00

Exercise: Also `CCC(=O)N1CCC[C@H](CNc2cc(Nc3ccc(OC)cc3)ncc2C(N)=O)C1` ?
Key: < 6.00

Exercise: Also `N#CCN1CCC(c2ccc(Nc3cc(NCc4cccc(F)c4F)c(C(N)=O)cn3)cc2)CC1` ?
Key: 6.00 to 7.00

Exercise: Also `CNC(=O)[C@@H]1CCCN(c2ccc(Nc3cc(N[C@H](C)c4ccccc4)c(C(N)=O)cn3)cc2)C1` ?
Key: 6.00 to 7.00

Exercise: Also `Cc1cc(Nc2cc(NCc3cncc(F)c3)c(C(N)=O)cn2)ccc1C(=O)N(C)C` ?
Key: 7.00 to 8.00

Exercise: Also `CN(C)S(=O)(=O)c1ccc(Nc2cc(NCc3cc(F)ccc3F)c(C(N)=O)cn2)cc1` ?
Key: 6.00 to 7.00

Exercise: Also `NC(=O)c1cnc(Nc2ccc(C(=O)N3CCOCC3)cc2)cc1NCC1CCCC1` ?
Key: 6.00 to 7.00

Exercise: Also `CS(=O)(=O)c1ccc(Nc2cc(NCc3cccc(-c4cccnc4)c3)c(C(N)=O)cn2)cc1` ?
Key: < 6.00

Exercise: Also `N#CCCc1ccc(Nc2cc(NCc3ccccc3)c(C(N)=O)cn2)cc1` ?
Key: 6.00 to 7.00

Exercise: Also `NC(=O)c1cnc(Nc2ccc(C3CN(C(=O)N4CCCC4)C3)cc2)cc1NCc1ccccc1` ?
Key: 6.00 to 7.00

Exercise: Also `NC(=O)c1cnc(Nc2ccc(OCCN3CCOCC3)cc2)cc1NCc1ccccc1` ?
Key: 6.00 to 7.00

Exercise: Also `NC(=O)c1cnc(Nc2ccc(N3CCCCC3=O)cc2)cc1NCc1ccccc1F` ?
Key: 6.00 to 7.00

Exercise: Also `CN(C)C(=O)NCc1ccc(Nc2cc(NCc3cccc4ccsc34)c(C(N)=O)cn2)cc1` ?
Key: 7.00 to 8.00

Exercise: Also `COC[C@@H](Nc1cc(Nc2ccc(OC)cc2)ncc1C(N)=O)c1ccccc1` ?
Key: < 6.00

Exercise: Also `NC(=O)c1cnc(Nc2ccc(N3CCOCC3)cc2)cc1NC1(c2ccccc2)CC1` ?
Key: 6.00 to 7.00

Exercise: Also `CC(=O)Nc1cccc(Nc2cc(NCc3cccs3)c(C(N)=O)cn2)c1` ?
Key: 6.00 to 7.00

Exercise: Also `COc1cccc(Nc2cc(NCc3ccccc3)c(C(N)=O)cn2)c1` ?
Key: < 6.00

Exercise: Also `CC(=O)N1CCC[C@H](CNc2cc(Nc3ccc(C(=O)N4CCCC4)cc3)ncc2C(N)=O)C1` ?
Key: 6.00 to 7.00

Exercise: Also `N#CC1(C(=O)N2CCC(c3ccc(Nc4cc(NCc5ccccc5F)c(C(N)=O)cn4)cc3)CC2)CC1` ?
Key: < 6.00
